The following binders are shown together with reported EC50 values.
study.system: T1, rhIL-1RAcP/Fc Chimera (human, UniProt Q9NPH3 21-359)
T1 construct: also called P013_03; P013-03
T1 sequence (looked up): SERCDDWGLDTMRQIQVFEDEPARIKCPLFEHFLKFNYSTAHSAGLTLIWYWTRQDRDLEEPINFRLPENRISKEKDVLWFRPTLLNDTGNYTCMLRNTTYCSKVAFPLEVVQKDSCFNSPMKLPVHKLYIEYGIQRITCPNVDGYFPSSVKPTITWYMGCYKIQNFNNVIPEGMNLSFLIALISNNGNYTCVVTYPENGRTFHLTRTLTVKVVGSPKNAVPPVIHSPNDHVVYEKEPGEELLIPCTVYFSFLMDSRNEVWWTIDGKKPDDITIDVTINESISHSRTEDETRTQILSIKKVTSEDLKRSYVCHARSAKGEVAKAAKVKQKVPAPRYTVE
experiment.description: ELISA, recombinant purified mAb
Return type: number; implicit unit µg/mL.

INSERT INTO results (binder, recorded_measurement) VALUES
  ('P013.S.02.B.E03 (antibody, V domains shown, rabbit monoclonal antibody; also called P013.A.00091.A10) VH: QSVEESGGRLVTPGTPLTLTCTVSGFSLSDYYMGWVRQAPGKGLEWIGTIDGGGSTYYASWAKGRFTVSKTSTTVDLTITSPTTEDTAIYFCARNYYAGLSDVFFGWWGQGTLVTVSS VL: DVVMTQTPASVEAAVGGTVTIMCQASETIYSGLAWYQQKPGQPPKLLIYYTSSLASGVPSRFKGSGSGTEFTLTISDLESADAATYYCQTYYDSEGRSYGYNSFGGGTEVVVK', 0.363),
  ('P013.S.01.B.H05 (antibody, V domains shown, rabbit monoclonal antibody; also called P013.A.00109.F08) VH: LEQSGGGAEGGLVKPGGSLELCCKASGFSLSNSYWICWVRQAPGKGLEWIGCIYVGSSGSTYYASWVNGRFTLSRDIDQSTGCLQLNSLTAADTAIYYCARDGATSTSGHLFELWGQGTLVTVSS VL: ALVMTQTPSPVSAAVGGTVTINCQASEDIYSNLAWFQQKPGQPPKLLIYRASTLASGVPSRFSGSGSGTEFTLTISGVQSDDAATYYCLGIYTYISADGSLYNAFGGGTEVVVK', 0.485);

[Q] For the binder P013.S.02.B.B02 (antibody, V domains shown, rabbit monoclonal antibody; also called P013.A.00045.H10) VH: LAQSGGGAEGGLVKPGGSLELCCEASGFSLSSSYWICWVRQAPGKGLEWIGCIYTGSSGNTYYASWVNGRFTLSRDIDRSTGCLQLNSLTAADTAMYYCARDANSHYMMNLWGQGTLVTVSS VL: ALVMTQTPSPVSAAVGGTVTINCQASEDIYSNLAWFQQKPGQPPKLLIYDASTLASGVPSRFSGSGSGTEFTLTISGLQSDDAATYYCLGVYTYISADGTLVYNAFGGGTEVVVR , what EC50 is on record?
[A] 0.359
